testTarget: UCHL1 (Homo sapiens (Human))
Sequence (P09936 whole entry, species assumed): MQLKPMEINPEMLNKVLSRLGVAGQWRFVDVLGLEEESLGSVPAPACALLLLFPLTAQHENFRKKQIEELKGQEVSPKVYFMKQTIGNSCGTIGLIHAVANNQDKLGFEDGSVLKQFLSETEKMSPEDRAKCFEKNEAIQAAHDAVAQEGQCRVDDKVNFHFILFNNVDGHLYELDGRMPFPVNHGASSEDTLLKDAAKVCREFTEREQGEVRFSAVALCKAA
testProtocol: UCHL1 DUB IC50
Assay type: biochemical
measuredMetric: IC50

Request: Which IC50 value is on record for C[C@@H]1[C@H]2CCN(C(=O)c3ncc(-c4ccnc(C#N)c4)o3)[C@H]2CN1C#N (single isomer, unassigned) ?
Result: > 300 µM

====

testProtocol: Plasma binding mouse (equilibrium dialysis)
Assay type: in vitro ADME
studyConditions: read-out: Binding Mouse Plasma fu,p
measuredMetric: fraction unbound

Request: Which fraction unbound value is on record for C[C@@H]1[C@H]2CCN(C(=O)c3ncc(-c4ccnc(C#N)c4)o3)[C@H]2CN1C#N (single isomer, unassigned) ?
Result: 0.14

====

testTarget: USP30 (Homo sapiens (Human), UniProt Q70CQ3)
Sequence (Q70CQ3 57-517): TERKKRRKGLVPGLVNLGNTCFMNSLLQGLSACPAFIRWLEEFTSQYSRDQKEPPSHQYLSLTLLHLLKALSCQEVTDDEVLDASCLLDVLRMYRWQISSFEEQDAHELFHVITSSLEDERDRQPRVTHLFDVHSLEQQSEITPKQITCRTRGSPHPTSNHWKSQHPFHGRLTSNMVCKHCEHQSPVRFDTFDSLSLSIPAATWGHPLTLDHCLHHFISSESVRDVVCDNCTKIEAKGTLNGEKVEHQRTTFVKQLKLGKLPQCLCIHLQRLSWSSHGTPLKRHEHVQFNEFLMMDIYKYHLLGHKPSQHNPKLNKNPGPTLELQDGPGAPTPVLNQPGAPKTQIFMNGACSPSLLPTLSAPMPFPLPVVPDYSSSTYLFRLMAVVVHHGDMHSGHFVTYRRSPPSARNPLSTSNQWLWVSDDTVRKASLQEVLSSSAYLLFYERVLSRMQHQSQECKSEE
measuredMetric: IC50 (nM)
Expressed in nM, but write only the number.

{"compound": "Cc1cc(-c2cccc(C(=O)N3CC[C@@H]4CN(C#N)C[C@@H]43)c2)ccn1 [Reference Example C]", "testTarget": "USP30 (Homo sapiens (Human), UniProt Q70CQ3)", "measuredMetric": "IC50", "recordedValue": 72}

Now turn to the next compound.
Request: Enter reported IC50 observed with USP30 (Homo sapiens (Human), UniProt Q70CQ3) for COc1ccc(-c2cc(C(=O)N3CC[C@@H]4CN(C#N)C[C@@H]43)on2)cc1 [B]
Result: 70

====

testProtocol: Log D lipophilicity measurement
Format: physicochemical
studyConditions: pH 7.4; read-out: Log D measured at pH 7.4
measuredMetric: logD
// response body must contain only the number

Request: Which logD value is on record for C[C@@H]1[C@H]2CCN(C(=O)c3ncc(-c4ccnc(C#N)c4)o3)[C@H]2CN1C#N (single isomer, unassigned) ?
Result: 1.4

====

testTarget: Cathepsin B (Homo sapiens (Human), UniProt P07858)
testProtocol: Cathepsin B IC50
Assay type: biochemical
Listed here are compounds together with their documented IC50.
Kindly report the value followed by its unit.

Record excerpt, results attached:
{"compound": "COc1ccc(-c2cc(C(=O)N3CC[C@@H]4CN(C#N)C[C@@H]43)on2)cc1", "IC50": "1.4 µM"}
{"compound": "Cc1cc(-c2cccc(C(=O)N3CC[C@@H]4CN(C#N)C[C@@H]43)c2)ccn1 [Reference Example C]", "IC50": "1.2 µM"}

Now turn to the next compound.
Request: Which IC50 value is on record for C[C@@H]1[C@H]2CCN(C(=O)c3ncc(-c4ccnc(C#N)c4)o3)[C@H]2CN1C#N (single isomer, unassigned) ?
Result: 205 µM

====

testProtocol: WT-MDCK in vitro flux
Assay type: in vitro ADME
studyConditions: dog
measuredMetric: Papp A→B (×10⁻⁶ cm/s)
Expressed in ×10⁻⁶ cm/s, but write only the number.

Request: Which Papp A→B value is on record for C[C@@H]1[C@H]2CCN(C(=O)c3ncc(-c4ccnc(C#N)c4)o3)[C@H]2CN1C#N (single isomer, unassigned) ?
Result: 16

====

Listed here are compounds together with their documented IC50.
testTarget: Cathepsin L (Homo sapiens (Human))
Sequence (P07711 114-333, species assumed): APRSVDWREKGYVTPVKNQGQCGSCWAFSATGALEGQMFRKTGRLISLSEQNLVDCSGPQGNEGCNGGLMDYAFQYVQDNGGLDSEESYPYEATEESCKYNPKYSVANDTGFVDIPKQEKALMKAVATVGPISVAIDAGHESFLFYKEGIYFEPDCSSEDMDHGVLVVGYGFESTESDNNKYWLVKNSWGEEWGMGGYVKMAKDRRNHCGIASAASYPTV
testProtocol: Cathepsin L IC50
Assay type: biochemical
Expressed in µM, but write only the number.

Record excerpt, results attached:
{"compound": "COc1ccc(-c2cc(C(=O)N3CC[C@@H]4CN(C#N)C[C@@H]43)on2)cc1 [B]", "quantityUnit": "µM", "recordedValue": 1.8}
{"compound": "C[C@@H]1[C@H]2CCN(C(=O)c3ncc(-c4ccnc(C#N)c4)o3)[C@H]2CN1C#N (single isomer, unassigned) [Example 1]", "quantityUnit": "µM", "recordedValue": 42.1}

Request: Enter reported IC50 observed with Cathepsin L (Homo sapiens (Human)) for Cc1cc(-c2cccc(C(=O)N3CC[C@@H]4CN(C#N)C[C@@H]43)c2)ccn1 [Reference Example C]
Result: 1.3
